- protocol: OD615 S. cerevisiae growth inhibition, permissive medium, pilot counter-assay, permissive growth control for S. cerevisiae lifespan shortening project (AID 705)
- condition_parameters: OD615, 24 h, at 10 µM, hits give high values
Calls of active or inactive are those of the source.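 How the source made its calls: active means growth inhibition above 25% in both replicates, a cutoff set 3 SD above the mean; inconclusive means above 25% in only one replicate; inactive means the rest.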
property_name: growth inhibition

Qu. Entry CCN(Cc1ccccc1)S(=O)(=O)c1ccc(S(=O)(=O)N2CCN(CCC#N)CC2)cc1 : reported growth inhibition = ?
Ans. -8.36% (inactive)

Qu. Entry CN1CCN(S(=O)(=O)c2cccc(S(=O)(=O)c3ccc(Cl)c(Cl)c3)c2)CC1 : reported growth inhibition = ?
Ans. -1.71% (inactive)

Qu. Entry CCS(=O)(=O)n1nc(-c2ccccc2)cc1N : reported growth inhibition = ?
Ans. -3.12% (inactive)

Qu. Entry CC(=O)c1c(NCc2ccccc2)nc(=O)n(-c2ccccc2)c1C : reported growth inhibition = ?
Ans. -4.12% (inactive)

Qu. Entry Cc1cc(C)n(-c2nc(NC(C)(C)C)nc(NC(C)(C)C)n2)n1 : reported growth inhibition = ?
Ans. -11.5% (inactive)

Qu. Entry O=C(NC1CCS(=O)(=O)C1)C1CCCCN1S(=O)(=O)c1ccc(Cl)cc1 (stereo unspecified) : reported growth inhibition = ?
Ans. -5.22% (inactive)

Qu. Entry COc1cccc(OCC(=O)N(Cc2nc(-c3ccc(Cl)cc3)no2)C(C)C)c1 : reported growth inhibition = ?
Ans. -4.67% (inactive)

Qu. Entry COc1cccc(C2CC(c3ccc(C(C)C)cc3)n3nc(N)nc3N2)c1 (stereo unspecified) : reported growth inhibition = ?
Ans. -2.39% (inactive)

Qu. Entry CCN(CC)S(=O)(=O)c1ccc(-c2nnco2)cc1 : reported growth inhibition = ?
Ans. -23.5% (inactive)

Qu. Entry CCOC(=O)c1c(C)oc2cc(Br)c(OC(=O)N3CCOCC3)cc12 : reported growth inhibition = ?
Ans. -10.9% (inactive)

Qu. Entry O=C(Nc1ccon1)c1cccc(C(F)(F)F)c1 : reported growth inhibition = ?
Ans. -9.21% (inactive)

----------
- protocol: inhibitors of the yeast RAM network, pilot screen, dse1pr::URA3 reporter, 5-FOA selection (AID 869);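 further: 0% = DMSO wells with no growth and 100% = 10 µM 1-NA-PP1 with full growth; RAM network block rescues cells from 5-FOA so hits raise OD615 growth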
- condition_parameters: S. cerevisiae dse1pr::URA3 5-FOA growth, OD615, 2 d; at 10 µM; hits give high values; strain carries analog-sensitive mutant Cbk1 kinase
Classification field: enter rule met for inhibition values not below 0.5%, rule not met for values below it.

Qu. Textbook exercise: given the entry O=C(Cn1cc2c(n1)CCCC2)N1CCCC1 , state whether its inhibition is greater than or equal to 0.5%.
Ans. rule met

Qu. Textbook exercise: given the entry O=C(NCCN1CCN(c2cccc(Cl)c2)CC1)C1CCCN(S(=O)(=O)c2cnc[nH]2)C1 (centres undefined) , state whether its inhibition is greater than or equal to 0.5%.
Ans. rule met

Qu. Textbook exercise: given the entry Cc1c(Br)cc(C(=O)N2CCCC2)c(C)c1C , state whether its inhibition is greater than or equal to 0.5%.
Ans. rule not met

Qu. Textbook exercise: given the entry O=C(C1CCCN(S(=O)(=O)c2ccccc2)C1)N1CCCCCC1 (centres undefined) , state whether its inhibition is greater than or equal to 0.5%.
Ans. rule met

Qu. Textbook exercise: given the entry COc1ccc(N(CC(=O)Nc2cc(OC)ccc2OC)S(=O)(=O)c2c(C)nn(C)c2C)cc1 , state whether its inhibition is greater than or equal to 0.5%.
Ans. rule met

Qu. Textbook exercise: given the entry COc1cccc(N(CC(=O)Nc2cccc(C(C)=O)c2)S(C)(=O)=O)c1 , state whether its inhibition is greater than or equal to 0.5%.
Ans. rule met

Qu. Textbook exercise: given the entry COc1ccc2ccccc2c1C1CC(=O)N2CN(C3CCCCC3)CSC2=C1C#N (centres undefined) , state whether its inhibition is greater than or equal to 0.5%.
Ans. rule met

Qu. Textbook exercise: given the entry C=CCn1c(-c2ccc(N)cc2)nc2ccccc21 , state whether its inhibition is greater than or equal to 0.5%.
Ans. rule met

Qu. Textbook exercise: given the entry COc1ccccc1C(=O)Nc1nnc(-c2ccc3c(c2)CCCC3)o1 , state whether its inhibition is greater than or equal to 0.5%.
Ans. rule not met

Qu. Textbook exercise: given the entry COC(=O)C1=CN(C)C=C(C(=O)OC)C1c1ccc(Cl)cc1Cl , state whether its inhibition is greater than or equal to 0.5%.
Ans. rule met

Qu. Textbook exercise: given the entry COC(=O)C1=C(C)N2C(=O)CSC2=NC1c1ccc2c(c1)OCO2 (centres undefined) , state whether its inhibition is greater than or equal to 0.5%.
Ans. rule not met

Qu. Textbook exercise: given the entry CC(C)CCNC(=O)c1ccc2c(c1)N(Cc1ccccc1)C(=O)CS2=O (centres undefined) , state whether its inhibition is greater than or equal to 0.5%.
Ans. rule not met
